target: UniProtKB P42345; experiment: mTOR kinase assay (DELFIA format, purified enzyme); format: biochemical; details: read-out: IC50 mTOR
measured metric: pIC50
Field pIC50 (float): negative decimal logarithm of the concentration in molar.

Example results:
compound	observed result
C[C@H]1COCCN1c1nc(-c2ccc(NC(=O)Nc3ccc(C(=O)N4CCN(C)CC4)cc3)cc2)nc(N2CCOC[C@@H]2C)n1	9.00
CC(C)Oc1nc(-c2ccc(NC(=O)Nc3ccncc3)cc2)nc(N2CCOCC2)n1	9.00
CNC(=O)Nc1ccc(-c2nc(-c3ccc(NC(=O)Nc4ccc(C(N)=O)cc4)cc3)nc(N3C(C)COCC3C)n2)cc1 (stereo not shown)	8.15

# next compound below
Test item O=C(Nc1ccc(-c2nc(Nc3ccccc3)nc(N3CC4CCC(C3)O4)n2)cc1)Nc1cccnc1 ; UniProtKB P42345; reported pIC50 was 8.30

* * *

A collection of molecules and their measured log10 IC50
molecular target: PI3K-γ (Homo sapiens); assay: PI3K-gamma fluorescence polarization assay; settings: read-out: IC50 PI3Kγ
Sequence (P48736 whole entry, species assumed): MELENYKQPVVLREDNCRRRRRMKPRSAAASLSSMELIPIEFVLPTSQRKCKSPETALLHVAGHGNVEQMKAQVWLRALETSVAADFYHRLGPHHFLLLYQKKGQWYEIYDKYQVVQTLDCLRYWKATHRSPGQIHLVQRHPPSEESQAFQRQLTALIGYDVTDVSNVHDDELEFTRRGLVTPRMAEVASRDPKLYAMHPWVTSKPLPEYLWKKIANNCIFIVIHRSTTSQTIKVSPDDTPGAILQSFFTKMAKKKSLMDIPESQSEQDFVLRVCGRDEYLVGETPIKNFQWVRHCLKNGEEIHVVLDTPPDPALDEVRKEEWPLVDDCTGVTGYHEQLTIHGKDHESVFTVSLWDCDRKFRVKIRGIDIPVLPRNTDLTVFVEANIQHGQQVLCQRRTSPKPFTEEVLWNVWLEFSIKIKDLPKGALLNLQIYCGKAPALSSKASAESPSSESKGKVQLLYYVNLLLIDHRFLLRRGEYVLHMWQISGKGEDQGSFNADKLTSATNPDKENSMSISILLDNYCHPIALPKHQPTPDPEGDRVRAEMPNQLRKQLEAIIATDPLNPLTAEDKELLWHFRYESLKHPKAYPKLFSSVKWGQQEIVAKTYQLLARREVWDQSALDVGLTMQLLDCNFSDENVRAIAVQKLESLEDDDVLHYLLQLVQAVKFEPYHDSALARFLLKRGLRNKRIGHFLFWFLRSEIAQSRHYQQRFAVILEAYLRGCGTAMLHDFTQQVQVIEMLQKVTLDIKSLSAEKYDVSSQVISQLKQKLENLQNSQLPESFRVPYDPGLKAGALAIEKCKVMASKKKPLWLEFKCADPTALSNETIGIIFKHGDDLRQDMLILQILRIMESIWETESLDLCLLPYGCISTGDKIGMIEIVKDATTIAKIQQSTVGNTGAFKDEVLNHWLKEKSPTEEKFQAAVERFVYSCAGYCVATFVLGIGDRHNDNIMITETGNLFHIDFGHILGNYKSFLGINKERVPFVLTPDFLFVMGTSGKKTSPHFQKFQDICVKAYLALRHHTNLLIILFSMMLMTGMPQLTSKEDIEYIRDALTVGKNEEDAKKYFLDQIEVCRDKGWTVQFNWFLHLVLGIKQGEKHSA
Annotation: log10 of IC50, nM basis.

Examples with answers:
molecule	log10 IC50
CN(C)CCNC(=O)c1ccc(NC(=O)Nc2ccc(-c3nc(N4CCOCC4)nc(N4C5CCCC4COC5)n3)cc2)cc1 [Example 796]	1.50
O=C(Nc1ccc(-c2nc(NN3CCN(C4CCCC4)CC3)nc(N3CC4CCC(C3)O4)n2)cc1)Nc1cccnc1 [Example 157]	3.85
CCN1CCN(C(=O)c2ccc(NC(=O)Nc3ccc(-c4nc(N5CCOCC5)nc(N5C6COCC5COC6)n4)cc3)cc2)CC1 [Example 806]	1.67
Cc1cc(NC(=O)Nc2ccc(-c3nc(OC4CCOCC4)nc(N4CCOCC4)n3)cc2)ccn1 [Example 63]	1.56

Per the records, this molecule ( Cc1nc(-c2ccc(NC(=O)Nc3ccc(C(=O)NC4CCN(C)CC4)cc3)cc2)nc(N2CCOCC2)n1 [Example 164] ) has log10 IC50 equal to 3.14

// CN(C)C1CCN(C(=O)c2ccc(NC(=O)Nc3ccc(-c4nc(N5CCOCC5)nc(N5C6CCCC5COC6)n4)cc3)cc2)CC1 [Example 794] : log10 IC50 value = 1.41

molecule O=C(Nc1ccncc1)Nc1ccc(-c2nc(C3CCOCC3)nc(N3C4CCC3COC4)n2)cc1 [Example 406] , log10 IC50 observed: 3.27

* * *

molecular target: PI3K-α (Homo sapiens, UniProt P42336); experiment: PI3K-alpha fluorescence polarization assay; conditions: read-out: IC50 PI3Kα
Sequence (P42336 whole entry, species assumed): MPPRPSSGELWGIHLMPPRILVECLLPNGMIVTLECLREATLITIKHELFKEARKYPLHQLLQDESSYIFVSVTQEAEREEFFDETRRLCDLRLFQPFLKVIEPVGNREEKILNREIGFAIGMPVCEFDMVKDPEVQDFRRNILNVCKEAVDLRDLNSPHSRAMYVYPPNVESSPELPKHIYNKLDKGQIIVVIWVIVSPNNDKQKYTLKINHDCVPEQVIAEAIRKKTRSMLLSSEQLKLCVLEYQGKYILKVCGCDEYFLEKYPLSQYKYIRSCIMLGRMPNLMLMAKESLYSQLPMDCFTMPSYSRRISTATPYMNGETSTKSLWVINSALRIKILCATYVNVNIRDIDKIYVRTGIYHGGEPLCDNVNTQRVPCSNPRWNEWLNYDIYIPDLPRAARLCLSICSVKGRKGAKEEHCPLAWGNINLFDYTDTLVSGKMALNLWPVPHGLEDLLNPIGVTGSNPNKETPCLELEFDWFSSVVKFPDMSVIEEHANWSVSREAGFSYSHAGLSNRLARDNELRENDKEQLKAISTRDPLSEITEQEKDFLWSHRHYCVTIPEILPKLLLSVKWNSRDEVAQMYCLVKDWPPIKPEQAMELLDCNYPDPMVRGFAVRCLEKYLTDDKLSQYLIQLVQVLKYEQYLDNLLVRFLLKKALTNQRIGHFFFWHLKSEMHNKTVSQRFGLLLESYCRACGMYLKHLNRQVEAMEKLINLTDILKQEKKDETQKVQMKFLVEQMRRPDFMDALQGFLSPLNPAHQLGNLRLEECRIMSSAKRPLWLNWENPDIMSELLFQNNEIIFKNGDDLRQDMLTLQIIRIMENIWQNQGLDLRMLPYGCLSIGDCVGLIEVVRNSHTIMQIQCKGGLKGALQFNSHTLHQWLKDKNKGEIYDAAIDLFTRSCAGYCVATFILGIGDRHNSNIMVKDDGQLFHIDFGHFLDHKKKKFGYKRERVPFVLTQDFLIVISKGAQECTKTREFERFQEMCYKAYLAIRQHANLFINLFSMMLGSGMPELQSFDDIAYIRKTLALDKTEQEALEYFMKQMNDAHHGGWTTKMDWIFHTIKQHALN
Sequence (P27986 whole entry partner, species assumed): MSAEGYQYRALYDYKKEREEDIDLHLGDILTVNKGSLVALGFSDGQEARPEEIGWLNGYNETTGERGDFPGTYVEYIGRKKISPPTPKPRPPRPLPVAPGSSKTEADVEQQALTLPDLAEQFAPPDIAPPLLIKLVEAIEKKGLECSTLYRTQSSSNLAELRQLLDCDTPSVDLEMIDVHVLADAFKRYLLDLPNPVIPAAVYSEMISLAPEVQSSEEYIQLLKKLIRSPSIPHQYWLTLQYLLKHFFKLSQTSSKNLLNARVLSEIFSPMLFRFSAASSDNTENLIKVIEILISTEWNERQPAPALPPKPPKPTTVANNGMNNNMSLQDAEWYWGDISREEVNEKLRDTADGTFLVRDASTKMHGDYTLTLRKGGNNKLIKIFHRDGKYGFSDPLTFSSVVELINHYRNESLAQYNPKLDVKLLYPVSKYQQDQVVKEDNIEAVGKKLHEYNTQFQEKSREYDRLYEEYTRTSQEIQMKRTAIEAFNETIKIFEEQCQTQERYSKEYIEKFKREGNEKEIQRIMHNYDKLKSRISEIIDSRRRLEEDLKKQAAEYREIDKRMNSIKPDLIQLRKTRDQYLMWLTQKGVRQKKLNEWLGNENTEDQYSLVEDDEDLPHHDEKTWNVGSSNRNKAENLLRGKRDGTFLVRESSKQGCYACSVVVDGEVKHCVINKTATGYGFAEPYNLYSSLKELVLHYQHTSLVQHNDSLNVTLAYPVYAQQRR
Under this convention, class 1 denotes IC50 strictly below 400 nM and class 0 denotes IC50 at or above 400 nM.

Look over these answered cases.
molecule	discrete label
CCNC(=O)Nc1ccc(-c2nc(N3CC4CCC(C3)O4)nc(N3CC4CCC(C3)O4)n2)cc1 [Example 29]	class 0
CC(C)Nc1nc(-c2ccc(NC(=O)Nc3ccc(N4CCNCC4)cc3)cc2)nc(N2C3CCC2COC3)n1 [Example 387]	class 0
CC(C)(C)OC(=O)N1CC2CN(c3nc(-c4ccc(NC(=O)Nc5ccncc5)cc4)nc(N4CCOCC4)n3)CC(C1)O2 [Example 281]	class 0
CCCCc1nc(-c2ccc(NC(=O)Nc3ccc(C(=O)Nc4ccc(N5CCN(C)CC5)cc4)cc3)cc2)nc(N2CCOCC2)n1 [Example 253]	class 1
C[C@H](CO)Nc1nc(-c2ccc(NC(=O)Nc3cccnc3)cc2)nc(N2CC3CCC(C2)O3)n1 [Example 260]	class 0

API: query returns whether the molecule falls strictly under 400 nM in IC50. Query: CC(C)Cc1nc(-c2ccc(NC(=O)Nc3ccc(C(=O)N4CCN(C)CC4)cc3)cc2)nc(N2CCOCC2)n1 [Example 322]
class 1

* * *

system: human prostate PC3-mm2 tumor cell line; experiment: In vitro cell culture growth assay (MTS), PC3-mm2; type: cell-based; settings: Homo sapiens, PC3MM2, 72 h, MTS cell growth assay, three days after drug treatment; read-out: IC50 PC3-mm2
measured metric: pIC50
pIC50 is defined as minus the log10 of a concentration measured in mol/L.

Consider the following illustrative entries.
compound	study target	measured metric	observed result
CCc1nc(-c2ccc(NC(=O)Nc3ccc(C(=O)N4CCC(N(C)C)CC4)cc3)cc2)nc(N2CCOCC2)n1 [Example 238]	human prostate PC3-mm2 tumor cell line	pIC50	7.21
CC(C)c1nc(-c2ccc(NC(=O)Nc3ccc(C(=O)NCCN(C)C)cc3)cc2)nc(N2CCOCC2)n1 [Example 305]	human prostate PC3-mm2 tumor cell line	pIC50	7.34
O=C(Nc1ccncc1)Nc1ccc(-c2nc(CCC3OCCCO3)nc(N3CCOCC3)n2)cc1 [Example 267]	human prostate PC3-mm2 tumor cell line	pIC50	6.70

# pIC50 of CC(C)Cc1nc(-c2ccc(NC(=O)Nc3ccc(C(=O)N4CCC(N(C)C)CC4)cc3)cc2)nc(N2CCOCC2)n1 [Example 323] = 7.11

* * *

target: PI3K-γ (Homo sapiens); experiment: PI3K-gamma fluorescence polarization assay; details: read-out: IC50 PI3Kγ; listed as 497
measured metric: pIC50
Please note pIC50 is a logarithmic value: minus log10 of concentration in mol/L. Answer with that number alone.

get_value(item= Nc1ccc(NC(=O)Nc2ccc(-c3nc(N4CCOCC4)nc(N4CCOCC4)n3)cc2)cc1 , readout=pIC50) returns 7.72

* * *

target: PI3K-γ (Homo sapiens); assay: PI3K-gamma fluorescence polarization assay; conditions: read-out: IC50 PI3Kγ
measured metric: pIC50
Please express pIC50 as -log10 of the molar concentration.

Guide cases for pIC50, answers given:
chemical string	observed result
COCCOc1nc(-c2ccc(NC(=O)Nc3ccncc3)cc2)nc(N2CCOCC2)n1	6.89
O=C(Nc1ccccc1)Nc1ccc(-c2nc(N3CCOCC3)nc(N3CCC4(CC3)OCCO4)n2)cc1	6.63
CN1CCCN(C(=O)Nc2ccc(NC(=O)Nc3ccc(-c4nc(N5CCOCC5)nc(N5CCOCC5)n4)cc3)cc2)CC1	8.22
CC(C)Nc1nc(-c2ccc(NC(=O)Nc3ccc(C(=O)NN(C)C)cc3)cc2)nc(N2CC3CCC(C2)O3)n1	5.56

So, O=C(Nc1ccc(-c2nc(-c3ccccc3)nc(N3CCOCC3)n2)cc1)Nc1cccc(C(=O)O)c1 ? Its pIC50 was 6.39

Reported pIC50 of O=C(Nc1ccc(CO)cc1)Nc1ccc(-c2nc(N3CC4CCC(C3)O4)nc(N3CC4CCC(C3)O4)n2)cc1 : 5.60

// field: pIC50; key: COC(=O)N1CCN(c2nc(-c3ccc(NC(=O)Nc4ccncc4)cc3)nc(N3CC4CCC(C3)O4)n2)CC1 ; value = 5.93

* * *

target: PI3K-α (Homo sapiens, UniProt P42336); assay: PI3K-alpha fluorescence polarization assay; details: read-out: IC50 PI3Kα; listed as 179
measured metric: IC50 (nM)
The figure you give is taken to be in nM; do not add the unit.

Just so you know, measured IC50 for O=C(Nc1ccc(C(=O)N2CCC(N3CCCC3)CC2)cc1)Nc1ccc(-c2nc(N3CCOCC3)nc(N3CCOCC3)n2)cc1 came out at 1

* * *

molecular target: PI3K-α (Homo sapiens, UniProt P42336); assay: PI3K-alpha fluorescence polarization assay; conditions: read-out: IC50 PI3Kα; listed as 722
measured metric: IC50 (pM)
Give just the number in pM; leave the unit off.

IC50 for CNCCN(C)C(=O)c1ccc(NC(=O)Nc2ccc(-c3nc(OC)nc(N4CCOCC4)n3)cc2)cc1 [Example 245] is 800

* * *

target: Human mTOR (FLAG-TOR) (Homo sapiens, UniProt P42345); test: mTOR kinase assay (DELFIA format, purified enzyme); type: biochemical; details: read-out: IC50 mTOR
Sequence (P42345 1360-2549 limits assumed): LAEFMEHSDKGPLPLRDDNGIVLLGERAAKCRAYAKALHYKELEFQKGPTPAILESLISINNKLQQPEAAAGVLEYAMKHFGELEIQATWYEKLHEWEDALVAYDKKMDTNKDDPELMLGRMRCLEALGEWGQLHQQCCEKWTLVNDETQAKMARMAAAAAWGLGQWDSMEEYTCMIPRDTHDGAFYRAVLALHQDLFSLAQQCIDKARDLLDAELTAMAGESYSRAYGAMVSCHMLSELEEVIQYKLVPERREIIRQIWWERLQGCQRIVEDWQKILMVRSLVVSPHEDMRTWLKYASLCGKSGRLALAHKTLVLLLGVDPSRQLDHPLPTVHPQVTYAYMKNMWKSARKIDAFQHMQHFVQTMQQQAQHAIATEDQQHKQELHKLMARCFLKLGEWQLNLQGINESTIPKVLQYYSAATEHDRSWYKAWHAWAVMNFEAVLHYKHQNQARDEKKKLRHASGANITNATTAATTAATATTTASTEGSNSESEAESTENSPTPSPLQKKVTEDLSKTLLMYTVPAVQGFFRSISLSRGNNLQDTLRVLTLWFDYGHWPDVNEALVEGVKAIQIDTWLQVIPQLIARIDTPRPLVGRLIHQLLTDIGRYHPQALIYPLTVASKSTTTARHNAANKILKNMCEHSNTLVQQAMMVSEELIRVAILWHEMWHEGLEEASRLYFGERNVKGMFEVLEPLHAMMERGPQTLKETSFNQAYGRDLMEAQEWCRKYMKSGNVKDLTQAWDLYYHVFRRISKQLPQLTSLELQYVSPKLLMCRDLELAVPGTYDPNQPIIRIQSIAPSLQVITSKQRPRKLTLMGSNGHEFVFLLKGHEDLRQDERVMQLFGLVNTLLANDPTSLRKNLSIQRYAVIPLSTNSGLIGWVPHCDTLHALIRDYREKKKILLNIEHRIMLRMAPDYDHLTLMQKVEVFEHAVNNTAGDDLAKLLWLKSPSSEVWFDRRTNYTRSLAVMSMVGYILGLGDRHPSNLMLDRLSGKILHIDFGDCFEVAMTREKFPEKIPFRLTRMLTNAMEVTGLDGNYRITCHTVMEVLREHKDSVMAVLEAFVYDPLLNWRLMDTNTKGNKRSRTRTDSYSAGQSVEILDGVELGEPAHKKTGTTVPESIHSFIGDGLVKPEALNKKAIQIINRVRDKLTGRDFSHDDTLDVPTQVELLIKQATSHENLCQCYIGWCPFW
We begin with a simple list: items and their reported pIC50.
Reminder that pIC50 means the negative base-10 logarithm of the concentration expressed in mol/L.

chemical string	study target	measured metric	observed result
CC(C)Nc1nc(-c2ccc(NC(=O)Nc3ccc(OCCN(C)C)cc3)cc2)nc(N2C3CCC2COC3)n1	Human mTOR (FLAG-TOR) (Homo sapiens, UniProt P42345)	pIC50	8.24

Note to self: pIC50 recorded for Cc1ccc(NC(=O)Nc2ccc(-c3nc(N4CCOCC4)nc(N4CC5CCC(C4)O5)n3)cc2)cc1 was 8.39

Item: O=C(Nc1ccc(-c2nc(NCCC3CCNCC3)nc(N3CC4CCC(C3)O4)n2)cc1)Nc1cccnc1 | pIC50: 8.40

// recorded pIC50 for CN(C)CCN(C)C(=O)c1ccc(NC(=O)Nc2ccc(-c3nc(N4CCOCC4)nc(N4C5CCC4COC5)n3)cc2)cc1 : 9.52

* * *

Measured pIC50 by item
target: Human mTOR (FLAG-TOR) (Homo sapiens); assay: mTOR kinase assay (DELFIA format, purified enzyme); type: biochemical; settings: read-out: IC50 mTOR
Just so you know, pIC50 here is -log10 of the concentration in molar units; reply with that number alone.

A selection of reference data follows.
compound	measured metric	observed result
COCCNC(=O)c1ccc(NC(=O)Nc2ccc(-c3nc(N4CCOCC4)nc(N4C5CCCC4COC5)n3)cc2)cc1 [Example 797]	pIC50	8.89
CCc1nc(-c2ccc(NC(=O)Nc3ccc(C(=O)NC4CN(C)C4)cc3)cc2)nc(N2CCOCC2)n1 [Example 299]	pIC50	7.10
O=C(Nc1ccc(C(=O)N2CCC(N3CCCCC3)CC2)cc1)Nc1ccc(-c2nc(N3CCOCC3)nc(N3CCOCC3)n2)cc1 [Example 75]	pIC50	9.12

Per the record, C[C@@H]1COCCN1c1nc(-c2ccc(NC(=O)Nc3cccnc3)cc2)nc(N2C[C@@H]3C[C@H]2CO3)n1 [Example 411] has pIC50 of 8.44
